Biological target: T1, human CXCR4 (human, UniProt P61073 1-352)
T1 construct: also called CXCR4 receptor; C-X-C chemokine receptor type 4
T1 sequence (P61073 whole entry): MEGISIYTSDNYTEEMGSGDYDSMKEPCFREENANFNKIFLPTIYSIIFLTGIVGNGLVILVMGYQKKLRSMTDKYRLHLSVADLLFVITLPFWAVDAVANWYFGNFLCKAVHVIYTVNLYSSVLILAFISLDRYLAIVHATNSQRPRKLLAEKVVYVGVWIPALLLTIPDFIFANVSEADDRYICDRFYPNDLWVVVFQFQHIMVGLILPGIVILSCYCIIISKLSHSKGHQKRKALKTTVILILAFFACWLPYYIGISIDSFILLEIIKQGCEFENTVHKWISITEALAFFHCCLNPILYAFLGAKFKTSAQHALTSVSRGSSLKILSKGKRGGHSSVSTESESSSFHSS
Assay: FMAT, hybridoma supernatant on HEK293T cells transiently overexpressing full-length human CXCR4
As shown below, each of these binders has a reported Count value.
assayReadout: Count

* 2A4 (antibody, V domains shown, Fully human monoclonal antibody from XenoMouse hybridoma; also called mAb 2A4; Mab2A4) VH: QVQLVESGGGVVQPGRSLRLSCAASGFTFSSYGMHWVRQAPGKGLEWVAVISYDGSNKYYADSVKGRFTISRDNSKNTLYLQMNSLRAEDTAVYYCTRGGLAARRNYYYSYGTDVWGQGTTVTVSS VL: DIQMTQSPSSLSASVGDRVTITCRASQDIRNDLGWYQQKPGKAPTRLIYAASSLQSGVPSRFSGSGSGTQFTLTISSLQPEDFATYYCLQHNSYPLTFGGGTKVQIK | 89
* 6C7 (antibody, V domains shown, Fully human monoclonal antibody from XenoMouse hybridoma; also called antibody 6C7; mAb 6C7) VH: QVQLVESGGGVVQPGRSLRLSCAASGFTFSNYVMHWVRQAPGKGLEWVAVIWYDGSNKYYADSVKGRFTISRDNSKNTLSLQMNSLRAEDTAVYYCERGEGYYGSGSRYRGYYYGMDVWGQGTTVTVSS VL: DIQMTQSPSSLSASVGDRVTITCRASQGIRTDLGWYQQKPGKAPKRLIYAASSLQSGVPSRFSGSGSGTEFTLTISSLQPEDFATYYCLQHNSYPRTFGQGTKVEIK | 199
* 7C8 (antibody, V domains shown, Fully human monoclonal antibody from XenoMouse hybridoma) VH: QVQLVESGGGVVQPGRSLRLSCAASGFTFSSYGMHWVRQAPGKGLEWVAVIWYDGTYKYYADSVRGRFTISRDNSKNTLYLQMNSLRAEDTAVYYCARGPLLRYFDWLSDYWGQGTLVTVSS VL: DIQMTQSPSSLSASVGDRVTITCRASQGIRNDLGWYQQKPGKAPKRLIYAATSLQSGVPSRFSGSGSGTEFTLTISSLQPEDFATYYCLQHNNYPRTFGGGTKVEIK | 184
* 4C1 (antibody, V domains shown, Fully human monoclonal antibody from XenoMouse hybridoma (strains XMG2 IgG2 or XMG4 IgG4, kappa/lambda); Tested as hybridoma supernatant or purified antibody; also called mAb 4C1; Mab4C1) VH: QVQLVESGGGVVQPGRSLRLSCAASGFTFSSYGMHWVRQAPGKGLEWVAVISYDGSNKYYADSVKGRFTISRDNSKNTLYLQMNSLRAEDTAVYYCTRGGLAARRNYYYSYGMDVWGQGTTVTVSS VL: DIQMTQSPSSLSASVGDRVTITCRASQDIRNDLGWYQQKPGKAPKRLIYAASSLQSGVPSRFSGSGSGTQFTLTISSLQPEDFATYYCLQHNSYPLTFGGGTKVQIK | 183
